settings: bacteroides intestinalis, 12 h, 2 µM
Description: The drug is tested on Bacteroides intestinalis strain: DSM17393 for biotransformation. The drug concentrations were measured before and after a 12-h incubation by liquid-chromatography-coupled mass spectrometry (LC–MS)
measure: Bacterial Biotransformation

Worked cases, Bacterial Biotransformation given:
| compound | measure | recordedValue |
| --- | --- | --- |
| CO[C@]12C[C@@H](COC(=O)c3cncc(Br)c3)CN(C)[C@@H]1Cc1cn(C)c3cccc2c13 | Bacterial Biotransformation | Compound NOT metabolized |
| CCC(C)n1ncn(-c2ccc(N3CCN(c4ccc(OCC5COC(Cn6cncn6)(c6ccc(Cl)cc6Cl)O5)cc4)CC3)cc2)c1=O (centres undefined) | Bacterial Biotransformation | Compound NOT metabolized |
| COc1cc2nc(N(C)CCCNC(=O)C3CCCO3)nc(N)c2cc1OC (centres undefined) | Bacterial Biotransformation | Compound NOT metabolized |
| CC1Cc2ccccc2N1NC(=O)c1ccc(Cl)c(S(N)(=O)=O)c1 (centres undefined) [INDAPAMIDE] | Bacterial Biotransformation | Compound NOT metabolized |
| C=C[C@H]1CN2CC[C@H]1C[C@H]2[C@H](O)c1ccnc2ccc(OC)cc12.C=C[C@H]1CN2CC[C@H]1C[C@H]2[C@H](O)c1ccnc2ccc(OC)cc12.O.O.O=S(=O)(O)O [QUININE SULFATE] | Bacterial Biotransformation | Compound NOT metabolized |

# Bacterial Biotransformation lookup, item O=C(CCCN1CCC2(CC1)C(=O)NCN2c1ccccc1)c1ccc(F)cc1
Compound NOT metabolized

# Bacterial Biotransformation lookup, item CN1CCC(=C2c3ccccc3CC(=O)c3sccc32)CC1.O=C(O)/C=C/C(=O)O [KETOTIFEN FUMARATE]
Compound NOT metabolized

# Bacterial Biotransformation lookup, item CC(C)c1c(CN(C)C(C)Cc2ccccc2)n(C)n(-c2ccccc2)c1=O (centres undefined)
Compound metabolized

# Bacterial Biotransformation lookup, item COc1cc2c(c(OC)c1OC)-c1ccc(OC)c(=O)cc1[C@@H](NC(C)=O)CC2
Compound metabolized

# Bacterial Biotransformation lookup, item Br.COc1ccc2c(c1)[C@]13CCCC[C@@H]1[C@H](C2)N(C)CC3.O [DEXTROMETHORPHAN HYDROBROMIDE]
Compound NOT metabolized

# Bacterial Biotransformation lookup, item CC(C)C[C@H]1C(=O)N2CCC[C@H]2[C@]2(O)O[C@](NC(=O)[C@@H]3C=C4c5cccc6[nH]c(Br)c(c56)C[C@H]4N(C)C3)(C(C)C)C(=O)N12.CS(=O)(=O)O [BROMOCRIPTINE MESYLATE]
Compound metabolized

----------
conditions: roseburia intestinalis, 12 h, 2 µM
Description: The drug is tested on Roseburia intestinalis strain: L1-82 for biotransformation. The drug concentrations were measured before and after a 12-h incubation by liquid-chromatography-coupled mass spectrometry (LC–MS)
measure: Bacterial Biotransformation

| compound | measure | recordedValue |
| --- | --- | --- |
| CC[C@H](C)C(=O)O[C@H]1C[C@@H](C)C=C2C=C[C@H](C)[C@H](CC[C@@H]3C[C@@H](O)CC(=O)O3)[C@H]21 | Bacterial Biotransformation | Compound NOT metabolized |
| Cc1cc2c(s1)Nc1ccccc1N=C2N1CCN(C)CC1 | Bacterial Biotransformation | Compound NOT metabolized |
| CN1CCOC(c2ccccc2)c2ccccc2C1 (stereo unspecified) | Bacterial Biotransformation | Compound NOT metabolized |
| CC(C)NCC(O)c1ccc(NS(C)(=O)=O)cc1 (stereo unspecified) | Bacterial Biotransformation | Compound NOT metabolized |

# Bacterial Biotransformation lookup, item COc1ccc([C@@H]2Sc3ccccc3N(CCN(C)C)C(=O)[C@@H]2OC(C)=O)cc1
Compound NOT metabolized
